# measurement target: Factor VIIa (Homo sapiens, UniProt P08709)
# Sequence (P08709 61-212 limits assumed): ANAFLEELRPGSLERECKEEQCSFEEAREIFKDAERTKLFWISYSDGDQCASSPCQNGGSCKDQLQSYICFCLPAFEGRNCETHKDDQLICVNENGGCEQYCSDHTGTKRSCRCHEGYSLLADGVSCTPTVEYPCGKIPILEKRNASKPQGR
# Sequence (P08709 213-466 limits assumed): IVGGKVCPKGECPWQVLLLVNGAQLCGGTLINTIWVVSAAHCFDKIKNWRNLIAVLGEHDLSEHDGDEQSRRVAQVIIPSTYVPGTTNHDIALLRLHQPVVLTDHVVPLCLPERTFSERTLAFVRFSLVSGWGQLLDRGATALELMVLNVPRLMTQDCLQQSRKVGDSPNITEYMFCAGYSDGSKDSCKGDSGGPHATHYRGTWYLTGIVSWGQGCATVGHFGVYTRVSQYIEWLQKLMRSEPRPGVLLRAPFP
pIC50: −log10 of the molar value. Numbered stars: 1 amine (or outer) side, 2 acyl side, 3 side chain; on linkers, the order of the positions; unused ones are H or OH. Bridge positions count the residues as written; N and C are the ends. Square brackets hold non-standard residues; d marks the D form. Peptide text beside a SMILES is read from it. mXylylene = c1cc(C[*:1])cc(C[*:2])c1; Phg = N[C@H](C(=O)O)c1ccccc1; Tle = CC(C)(C)[C@H](N)C(=O)O; NMeS = CN[C@@H](CO)C(=O)O; Nva = CCC[C@H](N)C(=O)O
assay metric: pIC50

CCC[C@H](N)C(=O)N[C@H]1CSCc2cccc(c2)CSC[C@@H](C(=O)N[C@@H](CCCNC(=N)N)C(=O)N[C@H](C(N)=O)C(C)(C)C)NC(=O)[C@H](c2ccccc2)NC(=O)[C@@H]2CCCN2C(=O)[C@H](CCC(=O)O)NC1=O [Compound R2030, [mXylyl(2,6)]Nvl-CEP-Phg-CR-Tbg-NH2] (H-[Nva]CEP[Phg]CR[Tle]-NH2; linker 2-6 via mXylylene) ... < 4.00

Per the record, CC[C@H](C)[C@@H]1NC(=O)[C@H](CO)N(C)C(=O)[C@H](CCC(=O)O)NC(=O)[C@@H](NC(=O)[C@@H](N)CCSC)CSCc2cccc(c2)CSC[C@@H](C(=O)N[C@@H](CCCNC(=N)N)C(=O)N[C@H](C(N)=O)C(C)C)NC1=O [Compound R2019, [mXylyl(2,6)]MCE-nMeS-ICRV-NH2] (H-MCE[NMeS]ICRV-NH2; linker 2-6 via mXylylene; N-terminus assumed) has pIC50 of < 4.00

* * *

# measurement target: human plasma kallikrein (Homo sapiens)
# Construct: purchased Enzyme Research Laboratories HPKa 1303
# Sequence (P03952 20-390 limits assumed): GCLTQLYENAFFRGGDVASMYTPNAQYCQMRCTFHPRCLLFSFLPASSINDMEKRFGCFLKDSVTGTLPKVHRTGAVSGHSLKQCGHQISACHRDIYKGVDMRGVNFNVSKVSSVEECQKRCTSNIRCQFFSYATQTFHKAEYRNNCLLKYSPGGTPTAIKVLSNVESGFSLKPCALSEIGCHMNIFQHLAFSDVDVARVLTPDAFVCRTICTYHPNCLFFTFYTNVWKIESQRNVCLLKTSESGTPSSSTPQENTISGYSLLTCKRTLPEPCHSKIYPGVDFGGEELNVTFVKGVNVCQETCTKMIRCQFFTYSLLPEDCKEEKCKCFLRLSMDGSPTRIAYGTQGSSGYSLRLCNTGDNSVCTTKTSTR
# Sequence (P03952 391-638 limits assumed): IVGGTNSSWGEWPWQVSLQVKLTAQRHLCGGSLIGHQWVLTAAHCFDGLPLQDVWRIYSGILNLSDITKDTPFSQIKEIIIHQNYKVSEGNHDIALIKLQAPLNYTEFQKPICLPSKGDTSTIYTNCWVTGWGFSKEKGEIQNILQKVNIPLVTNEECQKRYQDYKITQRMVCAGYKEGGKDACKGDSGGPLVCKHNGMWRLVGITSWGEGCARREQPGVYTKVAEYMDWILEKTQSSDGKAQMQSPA
# test summary: Enzyme inhibition assay (fluorogenic substrate H-Pro-Phe-Arg-AMC)
# Type: biochemical
# test parameters: Kallikrein inhibitory activity; 1 nM activated human kallikrein, 500 μM H-Pro-Phe-Arg-AMC, 1 hour room temperature; read-out: Avg. IC50
Numbered stars: 1 amine (or outer) side, 2 acyl side, 3 side chain; on linkers, the order of the positions; unused ones are H or OH. Bridge positions count the residues as written; N and C are the ends. Square brackets hold non-standard residues; d marks the D form. Peptide text beside a SMILES is read from it. * marks the point of attachment. mXylylene = c1cc(C[*:1])cc(C[*:2])c1; Heptanoyl = CCCCCCC(=O)*; Mpa = O=C(O)CCS
assay metric: pIC50
Friendly reminder that pIC50 comes from taking -log10 of the concentration in mol/L.

CCCCCCC(=O)N[C@H]1CSCc2cccc(c2)CSC[C@@H](C(=O)N[C@@H](CCCNC(=N)N)C(=O)N[C@H](C(N)=O)C(C)C)NC(=O)[C@H]([C@@H](C)CC)NC(=O)[C@H](CO)NC(=O)[C@H](CCC(=O)O)NC1=O [Compound R2041, [mXylyl(1,5)]Heptanoyl-CESICRV-NH2] (Heptanoyl-CESICRV-NH2; linker 1-5 via mXylylene) ... 7.62

Here is another molecule to look at.
Per the record, CC[C@H](C)[C@@H]1NC(=O)[C@H](C)NC(=O)[C@H](C)NC(=O)CCSCc2cccc(c2)CSC[C@@H](C(=O)N[C@@H](CCCNC(=N)N)C(=O)N[C@H](C(N)=O)C(C)C)NC1=O [Compound R2072, [mXylyl(1,5)](des-NH2)C-AAICRV-NH2] ([Mpa]AAICRV-NH2; linker 1-5 via mXylylene) has pIC50 of 7.89
